biological target: T1, cynomolgus αVβ6 on cells (cynomolgus, UniProt A0A2K5WCD3 31-1048; A0A2K5TZ36 22-787); test: FACS, HEK-293 transfected with cynomolgus αV and β6
T1 construct: whole, on cells; also called macaque αVβ6; Mac AVB6
Listing of entries alongside the reported GeoMean.
Answer as a number with no unit attached.

Worked set:
1. sc 254 (antibody, V domains shown) VH: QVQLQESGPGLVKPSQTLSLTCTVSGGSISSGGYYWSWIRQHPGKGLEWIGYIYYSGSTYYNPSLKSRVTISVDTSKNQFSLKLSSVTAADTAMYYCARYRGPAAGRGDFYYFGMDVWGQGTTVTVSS VL: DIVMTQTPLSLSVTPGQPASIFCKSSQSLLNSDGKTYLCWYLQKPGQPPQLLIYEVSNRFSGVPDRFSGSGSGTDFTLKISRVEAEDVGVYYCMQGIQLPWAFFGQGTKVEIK : 78.5
2. sc 277 (antibody, V domains shown) VH: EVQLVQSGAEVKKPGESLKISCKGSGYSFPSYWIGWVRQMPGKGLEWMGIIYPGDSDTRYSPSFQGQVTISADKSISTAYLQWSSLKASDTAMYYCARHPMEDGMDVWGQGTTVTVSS VL: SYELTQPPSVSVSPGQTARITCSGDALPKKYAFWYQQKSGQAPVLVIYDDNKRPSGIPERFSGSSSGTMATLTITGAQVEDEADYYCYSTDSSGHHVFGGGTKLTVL : 33.4
3. sc 188 (antibody, V domains shown) VH: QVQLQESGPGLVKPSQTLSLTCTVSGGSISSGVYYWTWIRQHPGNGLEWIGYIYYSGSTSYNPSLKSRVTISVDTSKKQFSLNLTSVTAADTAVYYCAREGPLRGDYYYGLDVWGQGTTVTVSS VL: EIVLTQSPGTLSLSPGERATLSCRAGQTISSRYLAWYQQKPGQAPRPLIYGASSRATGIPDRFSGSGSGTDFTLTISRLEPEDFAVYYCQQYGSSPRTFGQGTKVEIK : 23.9

stdin: I would be grateful if you could share the reported GeoMean for sc 161 (antibody, V domains shown) VH: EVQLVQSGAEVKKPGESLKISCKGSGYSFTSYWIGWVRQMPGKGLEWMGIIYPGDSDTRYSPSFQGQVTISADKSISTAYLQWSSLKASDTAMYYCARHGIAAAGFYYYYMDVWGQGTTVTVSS VL: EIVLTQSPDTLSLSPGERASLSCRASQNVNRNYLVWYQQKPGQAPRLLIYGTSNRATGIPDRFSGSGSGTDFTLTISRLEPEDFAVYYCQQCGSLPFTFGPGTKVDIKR .
stdout: 33

stdin: What value of GeoMean has been reported for the following binder? sc 298 (antibody, V domains shown) VH: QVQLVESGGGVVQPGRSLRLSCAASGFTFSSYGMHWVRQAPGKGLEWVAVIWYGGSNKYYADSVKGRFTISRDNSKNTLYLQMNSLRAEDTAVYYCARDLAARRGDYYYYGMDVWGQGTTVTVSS VL: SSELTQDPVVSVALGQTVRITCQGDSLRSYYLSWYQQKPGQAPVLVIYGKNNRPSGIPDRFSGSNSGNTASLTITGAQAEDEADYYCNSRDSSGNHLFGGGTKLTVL
stdout: 63.1
